Origin of values: the supplement of paper PMC9170038

System: MS2 coat protein
TEST DETAILS: apparent KD of MS2 coat protein; designed switch direction (-1 OFF switch, 1 ON switch): -1; higher = weaker reporter binding
SETUP CONDITIONS: input ligand: FMN 200 uM
Documented apparent KD of MS2 coat protein across a set of sequences
The answer is to be given in nM; state only the numeric part.

Example cases with answers are listed next.
Query string: Endpoint output: apparent KD of MS2 coat protein of UAUUUAGCAAGCAGAUCCCACAUGAGGAUCACCCAUGUUUUCUGAAUGUACAGAAUUACUGUACUUGCUCGUCUUAU [Winner reversed engineered 36] (Eterna round: R97, puzzle: Sensor, turn-off variant 1) . Value?
Result string: 76.2

Query string: Endpoint output: apparent KD of MS2 coat protein of AAUACAAGCUAUUGAUCCCACAUGAGGAUCACCCAUGUGCCUGGCCGUGAGACCAGGUUUACAAUAGCUCGUCUUAU [Sensor-V1 #47] (Eterna round: R97, puzzle: Sensor, turn-off variant 1) . Value?
Result string: 23.5

Here is another sequence to look at.
Query string: Endpoint output: apparent KD of MS2 coat protein of GCCUUAUCUGUCAGGAUAUACAAUAAAAUAAUUAUGUAGAAGGGACAUGAGGAUCACCCAUGUACAUUACAUUG [alecazam25] (Eterna round: R97, puzzle: Brourd's mod of Exclusion 4) . Value?
Result string: 50

---

Tested on: MS2 coat protein
TEST DETAILS: apparent KD of MS2 coat protein; designed switch direction (-1 OFF switch, 1 ON switch): -1; higher = weaker reporter binding
SETUP CONDITIONS: Eterna round: R95; input ligand: microRNA oligo, concentration not stated
OBSERVABLE: apparent KD of MS2 coat protein (µM)
The answer is to be given in µM; state only the numeric part.

Query string: Endpoint output: apparent KD of MS2 coat protein of GUAGAGUAAGGAUAUUGAGAAUAGGAUAGAAUGGUUAGAAUCAAGAAGGUACAUGAGGAUCACCCAUGUAAUGU [Excluse me!!!! 6 - Jieux - Exclusion 4] (puzzle: Exclusion 4) . Value?
Result string: 0.0222

Here is another sequence to look at.
Query string: Endpoint output: apparent KD of MS2 coat protein of AAGUACUACAAGCUUAGGGACAUGAGGAUCACCCAUGUUCGUCUUAUUGAUCUAGGUACGCUGACGUACCUAGAUCU [Mat - Sensor v3 - turn-off var 1 - JL Mod - D9] (puzzle: Sensor v3, turn-off variant 1) . Value?
Result string: 0.0586

---

System: K4 kissing-loop RNA reporter;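 further: bound reporter read as fluorescence of individual clusters on recovered sequencing chips by microscopy, with normalized cluster intensities fitted with a binding model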
TEST DETAILS: apparent KD of K4 kissing-loop reporter; higher = weaker reporter binding
SETUP CONDITIONS: Eterna round: R107; input ligand: theophylline 20 uM
Grouping by measured apparent KD of K4 kissing-loop reporter is done with the following cut points: lo (below 200 nM), med (200 nM to below 500 nM), hi (500 nM or more)

Check out these entries, answers already filled in.
Query string: Which bin should I file GCAAGAGAGUGAUGUUGUUUUGAUCAGGGCAAGGAUAUGCUAUAUAGCAGAAGGUGCCGUUUUCUGCUGGCUUUCGUUACCCAUU [theeternabot_exclusion_KL_FMN_A_6] under?
Result string: hi

Query string: Which bin should I file `AAAUAGAUCAGUCAUCCAGUGAUGUUGGAAGGAGCGUGCGAAAGCACAGGUAGGUCGCCAAAAUAAAACUGGCUGAUCAAAAUAA` under?
Result string: med

Query string: Which bin should I file AAGGGCUAGGCGGCCGCCACUUGUUGUGAACACAUACGAGCCAGUGAUGUUGGUAUUGUGUGCGGAAGGACCGGGCCUAGCCGAA [Exclusion - Tryptophan B (Freestyle 22)] under?
Result string: med

Query string: Which bin should I file GCAACAUUGGUAGGAUAUCAUUCUGAGUGAUGUUCAGGGUUCAGCUAACGAAAGUUAGUUGUACCAUGAGAAGGACUAAUGUUGC [Omei KL FMN B SS A v3] under?
Result string: hi

Query string: Which bin should I file AACGUUUUGAGAAGGAGCGCGUUAAGCAGUGAUGUUGCUGUAUUUUAUCCAAUUCAUAUAUCGCAGGUAGGUCGCUCAAUACGUA [JR_Nu_SSArginiB_Sub027] under?
Result string: hi

Query string: Which bin should I file CUUCAGAUCUGAAGGAGCGCGUUACCAGAAUGCAUCAUAGAGCAGUGAUGUUGCUCUGGAUCGCAGGUAGGUCGCAGAUCUGACG [Arg B Ex t7b] under?
Result string: lo

Continuing:
Query string: Which bin should I file UGACUGGACUGAAGGAGCGCUAAACUCCUAGUGAUGUUAGGAAAUACGAGACAAAGUCUCGGGCAGGUAGGUCGCAGUCUAGUCU [ArgBS 19 #SwitchBubble #StaticStem] under?
Result string: lo

Query string: Which bin should I file CGCAGUGAUGUUGCGAGUAACUACAGGGAAGGAGCGUGCUAAAGCACAGGUAGGUCGCCCAUGCAGUGAUGUUGUGUAAAAGGGU [Excluson Arginine A GF 13] under?
Result string: lo

Query string: Which bin should I file AGGGACGAUAGCGAUACCAGAGGUCGCAAAUUCGCGCCGUUUUUUAGGAAGUGAUGUUUUCUCCCUUGGCAGCGCCCUUAGAGUU [theeternabot_exclusion_KL_Theo_B_47] under?
Result string: hi

Query string: Which bin should I file GCAGUGAUGUUGCGGAUGUACAGUGGCGUGCGAGGACCGGUACGGCCGCCACUCGUACAGAGCGAGCUAAUACAUCGAUAGGUGA [whbob_SS_Tryp_A_m5] under?
Result string: med

Query string: Which bin should I file `GCCGUAGAUGGAAGGAGCGUGAAUGGCCUCUAUCCAAAGUGAUGUUUUGUUGAAGACUGUUCACAGGUAGGUCGCCAUCUACGGC` under?
Result string: lo

Query string: Which bin should I file UAAUUUAUGUCUUUAAUAUAAUAAUCAGAUACCAGUGAUUUAUGACACCCUUGGCAGCUGUAUAGAGUGAUGUUCUUAUGCUUAA [JR_ExcTheophyA_Sub011] under?
Result string: med

---

Tested on: MS2 coat protein
TEST DETAILS: apparent KD of MS2 coat protein; designed switch direction (-1 OFF switch, 1 ON switch): 1; higher = weaker reporter binding
SETUP CONDITIONS: input ligand: FMN 200 uM
Documented apparent KD of MS2 coat protein across a set of sequences
The answer is to be given in µM; state only the numeric part.

Query string: Endpoint output: apparent KD of MS2 coat protein of GACGUGAAGGCAGGAUAUGGGAAAGGAAGUGUACCAGAAGGGCCUGGAAAACAUGAGGAUCACCCAUGUGAACCCACGUCAGUU [PowerStrip SSNG 1.26] (Eterna round: R96, puzzle: Same State NG 1) . Value?
Result string: 0.016

Query string: Endpoint output: apparent KD of MS2 coat protein of UUUUUGAUCCGAGGAUAUCCUUUUUUCUUACAUGAGGAUCACCCAUGUAAAGGGAUUGAGUUGUAGGAGAAGGCGGUUUUUUUU [JR_SSNG2_Sub060] (Eterna round: R96, puzzle: Same State NG 2) . Value?
Result string: 0.0175

Query string: Endpoint output: apparent KD of MS2 coat protein of GCUAGUAUUAUUGUCAACAUGAGGAUCACCCAUGUAUGUUGGCAGGAUAUCGUUUGCAAAGCAAACGAGAAGGGCUAAACUAGC [Mat - Same State NG 3 - JL Mod - D10] (Eterna round: R96, puzzle: Same State NG 3) . Value?
Result string: 0.0719

Here is another sequence to look at.
Query string: Endpoint output: apparent KD of MS2 coat protein of GGCGAACAGGCUAACAUGAGGAUCACCCAUGUGGACUUCGUGUAGGAUAUCGGGAAGGAGGAAACCGAGAAGGGCAAAGAAGCC [AK SSNG3-V2-49] (Eterna round: R96, puzzle: Same State NG 3) . Value?
Result string: 0.195

---

Documented apparent KD of MS2 coat protein across a set of sequences
Test system: MS2 coat protein
TEST DETAILS: apparent KD of MS2 coat protein; designed switch direction (-1 OFF switch, 1 ON switch): 1; higher = weaker reporter binding
SETUP CONDITIONS: input ligand: microRNA oligo, concentration not stated
A bare number is not enough; add the unit after it.

Query string: Lab note: need apparent KD of MS2 coat protein for AUGGAGACCGGAGGAUAUGGACCAACAAUCGGUCCAGAAGGCUGCCCAUGGUAUACAUGAGGAUCACCCAUGUGGCCGCGGAGA [Eternabot solution 13] (Eterna round: R96, puzzle: Same State NG 1) on MS2 coat protein, anyone have it?
Result string: 69.2 nM

Continuing:
Query string: Lab note: need apparent KD of MS2 coat protein for UUGAAGAAUUAAGGAUAUUGAAUACAUAUGUUUAACAUGAGGAUCACCCAUGUGGGUUGCGGUGUCGAGAAGGUAAAAUACUAG [Mat - same State NG 2 - JL mod - D97] (Eterna round: R96, puzzle: Same State NG 2) on MS2 coat protein, anyone have it?
Result string: 278 nM
